Each recorded value in this set is attributed to ChEMBL document CHEMBL4513216.

Experiment: Toxicity liver stage against HepG2, at 10uM
Type: cell-based
Set-up: test concentration 10 uM, cell line HepG2-A16-CD81EGFP
Settings: human, HepG2-A16-CD81EGFP cells; read-out: INHIBITION
Entries and their cytotoxicity at 10 µM
Form entry: value (%) — number only.

Solved entries:
{"molecule": "CN(C)C(=O)CCNC(=O)Nc1cccc(Cl)c1-n1cccn1", "measured.value": 0.399}
{"molecule": "O=c1[nH]c(CCN2CCCCC2Cn2cccn2)nc2ccccc12 (configuration not stated)", "measured.value": -16.4}
{"molecule": "CN(C)C(=O)CC1CC2(CCN(Cc3ccco3)CC2)c2ccccc21 (configuration not stated)", "measured.value": -11.3}

Consider the additional molecule presented here.
Endpoint output: cytotoxicity at 10 µM of CCn1nc(C)c(-c2cncn2Cc2ccccc2CN(C)C)c1C . Value?
12.4

---

Here the recorded cytotoxicity at 10 µM is given for each entry.
Experiment: Toxicity liver stage against HepG2, at 10uM
Format: cell-based
Set-up: test concentration 10 uM, cell line HepG2-A16-CD81EGFP
Conditions: human, HepG2-A16-CD81EGFP cells; read-out: INHIBITION
Form entry: value (%) — number only.

Below are worked cases with known answers.
{"molecule": "Cc1ccc(CN2CCC3(CC2)C(=O)Nc2ccccc23)s1", "unit.info": "%", "cytotoxicity at 10 µM": 2.88}
{"molecule": "CS(=O)(=O)Nc1cccc(CNC(=O)CCC(=O)c2cccs2)c1", "unit.info": "%", "cytotoxicity at 10 µM": 1.73}
{"molecule": "O[C@@H]1CCN(CC2CCOC2)[C@H]1Cc1ccccc1 (some centres not stated)", "unit.info": "%", "cytotoxicity at 10 µM": -7.98}

So what does the record say about cytotoxicity at 10 µM for Cc1nnc2ccc(N3CCC(C(=O)Nc4nccs4)CC3)nn12 ?
3.89

Sample CCCNC(=O)CNc1ccc(C(=O)N2CCCCC2C)cc1C (configuration not stated) — what was its cytotoxicity at 10 µM?
-7.67

Fill in the blank: the reported cytotoxicity at 10 µM of CCN(CC)S(=O)(=O)c1csc(C(=O)N2CCC(C(N)=O)CC2)c1 is ____.
-43.9

Query (molecule): O=C(CCc1cc2n(n1)CCN(Cc1ncc[nH]1)C2)N1CCCC1 ; field requested: cytotoxicity at 10 µM
-5.77

Look at this molecule and give its reported cytotoxicity at 10 µM. O=C(CCNC(=O)c1ccoc1)NCc1ccccc1F
1.76

---

Test: Toxicity liver stage against HepG2, at 10uM
Assay type: cell-based
Parameters: test concentration 10 uM, cell line HepG2-A16-CD81EGFP
Conditions: human, HepG2-A16-CD81EGFP cells; read-out: INHIBITION
assay.readout: cytotoxicity at 10 µM (%)
Report only the number, with the unit % understood.

Consider the following illustrative entries.
{"compound": "Cc1cc(NC(=O)Cn2ncc(Br)c2C)no1", "unit.info": "%", "measured.value": 4.12}
{"compound": "O=C(CCc1nccs1)N1CCC(C(=O)O)(c2ccccc2)CC1", "unit.info": "%", "measured.value": 1.75}
{"compound": "Cc1cc(N2CCCCCC2)n2nc(C)c(C)c2n1", "unit.info": "%", "measured.value": -6.23}
{"compound": "COc1ccc(CNCc2ccnc(N3CCCC3)c2)c(OC)c1", "unit.info": "%", "measured.value": 3.45}
{"compound": "CC(C)c1cc(C2CCN(Cc3cc(F)cc(F)c3)CC2)[nH]n1", "unit.info": "%", "measured.value": -7.46}

Consider now this further compound.
Look at this compound and give its reported cytotoxicity at 10 µM. COc1c(CNC2CCc3cc(F)ccc32)c(C(C)C)nn1C (stereo unspecified)
1.16
